Molecular target: FABP4 (Homo sapiens, UniProt P15090)
Construct: purchased Sigma Aldrich
Sequence (P15090 whole entry): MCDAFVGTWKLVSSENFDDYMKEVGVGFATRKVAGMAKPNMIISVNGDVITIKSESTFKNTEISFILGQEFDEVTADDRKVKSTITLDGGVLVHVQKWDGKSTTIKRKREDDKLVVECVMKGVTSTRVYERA
Experiment: CW EPR spectra and spectral simulations of spin-probed fatty acids with FABP4
Assay type: binding
Details: read-out: KD,T,50′ (fit), apparent KD read at 50% totally bound; 37 °C, 20 μM spin probe, EPR binding curve
Procedure: For a more in-depth view of the binding mechanism, CW EPR spectra of 5/16-DSA with concentration series of the FABPs were measured and simulated. […] Equal concentrations of 20 μM of each spin probe (5- and 16-DSA) were mixed with FABP concentrations of 0 to 200 μM, increasing the resulting ligand/protein ratio in the samples stepwise from 1/0 to 1/10. To analyze the spectra quantitatively, subsequent EPR spectral simulations were performed (Fig. 2, B and C). […]
Listing of recorded pKd by entry.
The value called pKd is obtained by taking minus log10 of the concentration in mol/L.

>>> result_number("CCCCCCCCCCCCCC1(CCCC(=O)O)OCC(C)(C)N1[O] (centres unmarked)")
4.50

(Q) Given the compound CCC1(CCCCCCCCCCCCCCC(=O)O)OCC(C)(C)N1[O] (centres unmarked) , what is its reported pKd?
(A) 4.75

====

Molecular target: FABP4 (Homo sapiens, UniProt P15090)
Construct: purchased Sigma Aldrich
Assay: MST binding of fluorescent fatty acids to FABP4
Conditions: 80 nM rhodamine-PA, FABP4 handled in water
Description: FABPs are known to bind more hydrophobic ligands with higher affinity ([1]). Microscale thermophoresis (MST) experiments were carried out on a Monolith NT.115 MST device (NanoTemper Technologies GmbH). […] This was done to find the optimum concentration and excitation power and to check the fluorescence activity of the fluorophores. The fluorescence intensity had to be in the range of 300 to 600 counts, with preferably smooth MST traces. […]
parameter: Kd (µM)
Field: numeric (µM). Do not append units.

(Q) Given the molecule CCN(CC)c1ccc2c(-c3ccc(S(=O)(=O)NCCCCCCCCCCCCCCCC(=O)O)cc3S(=O)(=O)[O-])c3ccc(=[N+](CC)CC)cc-3oc2c1 [rhodamine-PA] , what is its reported Kd?
(A) 10.5

====

Molecular target: FABP5 (Homo sapiens)
Construct: purchased Sigma Aldrich
Assay: CW EPR spectra and spectral simulations of spin-probed fatty acids with FABP5
Type: binding
Conditions: read-out: KD,T,50′ (fit), apparent KD read at 50% totally bound; 37 °C, 20 μM spin probe, EPR binding curve
Listing of recorded pKd by entry.
The value called pKd is obtained by taking minus log10 of the concentration in mol/L.

>>> result_number("CCCCCCCCCCCCCC1(CCCC(=O)O)OCC(C)(C)N1[O] (centres unmarked)")
5.18

(Q) Given the compound CCC1(CCCCCCCCCCCCCCC(=O)O)OCC(C)(C)N1[O] (centres unmarked) , what is its reported pKd?
(A) 5.12

====

Molecular target: FABP5 (Homo sapiens, UniProt Q01469)
Construct: purchased Sigma Aldrich
Sequence (Q01469 whole entry): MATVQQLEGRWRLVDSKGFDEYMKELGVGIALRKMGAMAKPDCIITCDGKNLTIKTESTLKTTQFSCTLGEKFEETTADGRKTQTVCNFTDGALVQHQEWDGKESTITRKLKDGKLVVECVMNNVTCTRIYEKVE
Assay: CW EPR spectra and spectral simulations of spin-probed fatty acids with FABP5
Type: binding
Settings: 37 °C, 20 μM FABP5, 20 μM spin probe; read-out: KD,T,20μM (calculated, totally bound)
parameter: pKd
The value called pKd is obtained by taking minus log10 of the concentration in mol/L.

>>> result_number("CCCCCCCCCCCCCC1(CCCC(=O)O)OCC(C)(C)N1[O] (centres unmarked) [5-DSA, 5-DOXYL stearic acid]")
5.69

(Q) Given the molecule CCC1(CCCCCCCCCCCCCCC(=O)O)OCC(C)(C)N1[O] (centres unmarked) [16-DSA, 16-DOXYL stearic acid] , what is its reported pKd?
(A) 5.67

====

Biological target: FABP3 (Homo sapiens, UniProt P05413)
Construct: purchased Sigma Aldrich
Sequence (P05413 whole entry): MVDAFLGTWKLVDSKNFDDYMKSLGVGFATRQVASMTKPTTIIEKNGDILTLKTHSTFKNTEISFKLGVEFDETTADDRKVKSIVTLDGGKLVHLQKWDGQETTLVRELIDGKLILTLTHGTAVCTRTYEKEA
Assay: MST binding of fluorescent fatty acids to FABP3
Conditions: 80 nM rhodamine-PA, HEPES/NaCl pH 7.5 with 0.05 Vol-% Tween 20
parameter: Kd (µM)
Field: numeric (µM). Do not append units.

(Q) Given the compound CCN(CC)c1ccc2c(-c3ccc(S(=O)(=O)NCCCCCCCCCCCCCCCC(=O)O)cc3S(=O)(=O)[O-])c3ccc(=[N+](CC)CC)cc-3oc2c1 [rhodamine-PA] , what is its reported Kd?
(A) 3.5

====

Biological target: FABP4 (Homo sapiens)
Construct: purchased Sigma Aldrich
Assay: CW EPR spectra and spectral simulations of spin-probed fatty acids with FABP4
Format: binding
Conditions: 37 °C, 20 μM FABP4, 20 μM spin probe; read-out: KD,T,20μM (calculated, totally bound)
parameter: pKd
The value called pKd is obtained by taking minus log10 of the concentration in mol/L.

>>> result_number("CCCCCCCCCCCCCC1(CCCC(=O)O)OCC(C)(C)N1[O] (centres unmarked)")
4.68

With those in mind, consider the next compound.
(Q) Given the compound CCC1(CCCCCCCCCCCCCCC(=O)O)OCC(C)(C)N1[O] (centres unmarked) , what is its reported pKd?
(A) 5.00

====

Listing of recorded Kd by entry.
Target: FABP4 (Homo sapiens)
Construct: purchased Sigma Aldrich
Assay: CW EPR spectra and spectral simulations of spin-probed fatty acids with FABP4
Assay type: binding
Conditions: 37 °C, 100 μM FABP4, 20 μM spin probe; read-out: KD,T,100μM (calculated, totally bound)
Field: numeric (µM). Do not append units.

(Q) Given the molecule CCCCCCCCCCCCCC1(CCCC(=O)O)OCC(C)(C)N1[O] (centres unmarked) , what is its reported Kd?
(A) 9.53

(Q) Given the molecule CCC1(CCCCCCCCCCCCCCC(=O)O)OCC(C)(C)N1[O] (centres unmarked) , what is its reported Kd?
(A) 16.7

====

Molecular target: FABP3 (Homo sapiens)
Construct: purchased Sigma Aldrich
Assay: CW EPR spectra and spectral simulations of spin-probed fatty acids with FABP3
Assay type: binding
Conditions: 37 °C, 100 μM FABP3, 20 μM spin probe; read-out: KD,T,100μM (calculated, totally bound)
parameter: pKd
The value called pKd is obtained by taking minus log10 of the concentration in mol/L.

>>> result_number("CCC1(CCCCCCCCCCCCCCC(=O)O)OCC(C)(C)N1[O] (centres unmarked)")
6.32

With those in mind, consider the next compound.
(Q) Given the compound CCCCCCCCCCCCCC1(CCCC(=O)O)OCC(C)(C)N1[O] (centres unmarked) , what is its reported pKd?
(A) 5.69

====

Listing of recorded Kd by entry.
Biological target: FABP3 (Homo sapiens, UniProt P05413)
Construct: purchased Sigma Aldrich
Assay: CW EPR spectra and spectral simulations of spin-probed fatty acids with FABP3
Type: binding
Details: 37 °C, 20 μM spin probe, EPR binding curve; read-out: KD,T,75′ (fit), apparent KD read at 75% totally bound
Field: value (include unit after the number)

>>> result("CCCCCCCCCCCCCC1(CCCC(=O)O)OCC(C)(C)N1[O] (centres unmarked)")
"17.4 µM"

(Q) Given the compound CCC1(CCCCCCCCCCCCCCC(=O)O)OCC(C)(C)N1[O] (centres unmarked) , what is its reported Kd?
(A) 18 µM

====

Listing of recorded pKd by entry.
Target: FABP5 (Homo sapiens, UniProt Q01469)
Construct: purchased Sigma Aldrich
Experiment: CW EPR spectra and spectral simulations of spin-probed fatty acids with FABP5
Assay type: binding
Conditions: 37 °C, 20 μM spin probe, EPR binding curve; read-out: KD,T,75′ (fit), apparent KD read at 75% totally bound
The value called pKd is obtained by taking minus log10 of the concentration in mol/L.

>>> result_number("CCC1(CCCCCCCCCCCCCCC(=O)O)OCC(C)(C)N1[O] (centres unmarked)")
4.66

With those in mind, consider the next compound.
(Q) Given the compound CCCCCCCCCCCCCC1(CCCC(=O)O)OCC(C)(C)N1[O] (centres unmarked) , what is its reported pKd?
(A) 4.60

====

Target: FABP5 (Homo sapiens, UniProt Q01469)
Construct: purchased Sigma Aldrich
Test: CW EPR spectra and spectral simulations of spin-probed fatty acids with FABP5
Type: binding
Settings: 37 °C, 100 μM FABP5, 20 μM spin probe; read-out: KD,T,100μM (calculated, totally bound)
Listing of recorded Kd by entry.
Field: numeric (µM). Do not append units.

>>> result_number("CCC1(CCCCCCCCCCCCCCC(=O)O)OCC(C)(C)N1[O] (centres unmarked)")
8.9

With those in mind, consider the next compound.
(Q) Given the compound CCCCCCCCCCCCCC1(CCCC(=O)O)OCC(C)(C)N1[O] (centres unmarked) , what is its reported Kd?
(A) 7.79

====

Biological target: FABP5 (Homo sapiens)
Construct: purchased Sigma Aldrich
Assay: MST binding of fluorescent fatty acids to FABP5
Details: 80 nM rhodamine-PA, HEPES/NaCl pH 7.5 with 0.05 Vol-% Tween 20
parameter: Kd
Field: value (include unit after the number)

(Q) Given the compound CCN(CC)c1ccc2c(-c3ccc(S(=O)(=O)NCCCCCCCCCCCCCCCC(=O)O)cc3S(=O)(=O)[O-])c3ccc(=[N+](CC)CC)cc-3oc2c1 , what is its reported Kd?
(A) 8.3 µM
